Where these numbers come from: PubChem BioAssay (NCI)

# Tested on: SN12C renal
# protocol notes: NCI-60 one-dose screen, 48 h (100 = growth as untreated, 0 = no growth, -100 = all killed)
# assay conditions: 10 µM unless noted
# Procedure: Growth inhibition of the SN12C human tumor cell line is measured as a screen for anti-cancer activity. Cells are grown in 96 well plates and exposed to the test compound for 48 hours. Compounds are tested at a single concentration, which is 10^-5 M for most compounds. The reported endpoint is percent growth (GI% or GIPRCNT), where numbers from 0 - 100% represent growth inhibition, and numbers from -100% - 0 represent cell death. For example, a value of 40 represents 60% growth inhibition. […]
The panel holds about 83,000 compounds, 20% with a hit somewhere; the sample as a whole holds those more often.

# compound, growth (%)
records = [
    ("COc1cc2nc(N3CCCC3)nc(NCCc3ccccc3)c2cc1OC", 75.9),
    ("O=C(O)COc1ccc(Cl)cc1C1CCCCC1", 98.5),
    ("Fc1ccc(CNc2cccc3[nH]c(C(F)(F)F)nc23)cc1", 72.4),
    ("O=C(O)c1c(=O)cccc2ssc12", 14.3),
    ("CCOc1cc2ncc(C#N)c(Nc3ccc(OCc4cccc(F)c4)c(Cl)c3)c2cc1NC(=O)CC1CCSS1 (stereo not drawn)", 46),
    ("CCN(CC)c1ccc2c(c1)Oc1nc(N)c(C#N)c(N)c1C2Sc1ccc(SC)cc1 (stereo not drawn)", -13.4),
    ("CCOC(=O)c1c(CN2CCN(C)CC2)nc2ccc(Cl)cc2c1-c1ccccc1", 92.8),
    ("CN1CCN=C1c1ccc(NC(=O)c2ccc(C(=O)Nc3ccc(C4=NCCN4C)cc3)cc2)cc1", 98.1),
    ("Cn1cc(C(=O)c2nc(-c3c[nH]c4ccccc34)no2)c2ccccc21", 91.3),
    ("C=CCSSc1ncnc2c1ncn2C1OC(CO)C(O)C1O (stereo not drawn)", 76.2),
    ("O=C1Nc2cc(-c3ccc(O)cc3)ccc2/C1=C/c1ccc[nH]1", 13.6),
    ("O=C(/C=C/c1ccccc1)c1ccc(O)c(CN2CCN(c3cc4c(cc3F)c(=O)c(C(=O)O)cn4C3CC3)CC2)c1", 8.48),
    ("O=C(/C=C/c1cc(CN2CCOCC2)c(O)c2ncccc12)c1cc(CN2CCOCC2)c(O)c2ncccc12", 26.1),
    ("CC1=NN(c2nc(-c3ccc(Cl)cc3)c(C#N)c(N3CCOCC3)n2)C(=O)C1", 88.5),
    ("Cc1cc(N2CCCCCC2)nc(NC2CCCC(Nc3ccnc4cc(Cl)ccc34)C2)n1 (stereo not drawn)", -90.7),
    ("O=C1CSC(=S)N1CCc1ccc(O)cc1", 81.6),
    ("C=C(C)[C@@H]1CC[C@]2(C(N)=O)CC[C@]3(C)[C@H](CC[C@@H]4[C@@]5(C)C/C(=C/c6ccco6)C(=O)C(C)(C)[C@@H]5CC[C@]43C)[C@@H]12", 96.1),
    ("O=c1ccccc(-c2ccc(-c3ccco3)cc2)c1O", 11.3),
    ("CCCCCCN(CCCCCC)C(=N)c1ccnc2ccccc12", 71.9),
    ("C=C(C)C1CC(O)C2(C)CCCC3C2C1CC(C)C3(C)CC/C(C)=C/C(O)C1CCC(=O)c2c(OC)cc(OC)cc21 (stereo not drawn)", 59.2),
    ("CCn1c(O)c(/C=N/NC(=O)C(C)c2ccc(CC(C)C)cc2)sc1=S (stereo not drawn)", 38),
    ("Cn1cc(-c2nonc2-c2cn(C)c3ccc(F)cc23)c2cc(F)ccc21", 61.6),
    ("COC(=O)c1ccc(NC(=O)c2ccc(-c3cccc([N+](=O)[O-])c3)o2)cc1", 97.3),
]
